Molecular target: human muscarinic M4 receptor (Homo sapiens)
Construct: expressed in transfected cells
Sequence (P08173 whole entry): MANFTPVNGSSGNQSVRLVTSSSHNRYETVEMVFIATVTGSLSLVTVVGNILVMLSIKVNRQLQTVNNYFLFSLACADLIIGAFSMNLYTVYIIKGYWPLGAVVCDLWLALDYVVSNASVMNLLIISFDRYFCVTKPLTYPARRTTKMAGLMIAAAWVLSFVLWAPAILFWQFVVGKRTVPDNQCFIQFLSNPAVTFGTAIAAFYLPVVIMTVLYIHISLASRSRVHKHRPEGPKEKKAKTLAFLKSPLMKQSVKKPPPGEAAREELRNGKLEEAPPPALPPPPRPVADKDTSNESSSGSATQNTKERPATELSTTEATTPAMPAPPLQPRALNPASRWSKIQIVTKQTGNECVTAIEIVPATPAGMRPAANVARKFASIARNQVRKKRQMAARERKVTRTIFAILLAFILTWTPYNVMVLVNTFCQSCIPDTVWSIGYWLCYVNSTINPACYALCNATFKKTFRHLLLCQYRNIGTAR
Assay: Alphascreen Surefire phospho-ERK1/2 functional assay, M4
Type: cell-based
Details: CHO cells stably expressing human M4; phospho-ERK1/2; read-out: pEC50 M4 (converted)
Here the recorded log10(EC50) is given for each entry.
Please interpret these as log10 of EC50 where EC50 is in nM.

Worked cases, log10(EC50) given:
CCOC(=O)N1CCCN(C2CCC(C#N)(c3ccc(F)cc3)CC2)CC1 (mixture of isomers) [3-3 mixture of isomers]; 1.80
O=C1Nc2ccccc2C12CCC(N[C@@H]1CC[C@H](c3nc(C(F)(F)F)no3)C1)CC2 (single isomer, unassigned) [24-1 Isomer 1]; 2.02
N#CC1(c2ccccc2)CCC(N2CCCN(C(=O)OCCF)CC2)CC1 (mixture of isomers) [3-29 mixture of isomers]; 2.30
CCOC(=O)N1CCCN(C2CCC3(CC2)C(=O)Nc2cc(C#N)ccc23)CC1 (single isomer, unassigned) [4-13 isomer 2]; 2.54
CCOC(=O)N1CCC2CN(C3CCC(C#N)(c4ccccc4)CC3)CC21 (single isomer, unassigned) [15-1 Isomer 2]; 2.16

Lookup result for CCOC(=O)N1CCC2(CCN(C3CCC4(CC3)C(=O)N(C(=O)OCC)c3ccccc34)CC2)C1 (single isomer, unassigned) [12-2 isomer 1] ; measured log10(EC50): 1.03

log10(EC50) for CCOC(=O)N1CCCN(C2CCC(C#N)(c3ccc(Cl)cc3)CC2)CC1 (mixture of isomers) [3-6 mixture of isomers] is 2.00

Entry under test: CC#CCOC(=O)N1CCCN(C2CCC(C#N)(c3ccc(OC)cn3)CC2)CC1 (single isomer, unassigned) [3-32 Isomer 1] . Its log10(EC50) was 2.88

Item: CCOC(=O)N1CCCN(C2CCC(C#N)(c3ccc(Br)cn3)CC2)CC1 (single isomer, unassigned) [3-17 Isomer 1] | log10(EC50): 1.86

====

Molecular target: human muscarinic M1 receptor (Homo sapiens)
Test: Alphascreen Surefire phospho-ERK1/2 functional assay, M1
Format: cell-based
Settings: CHO cells stably expressing human M1; Emax relative to ACh
Consider the reported M1 % Emax cf. ACh of an entry and match it to a band in bin A (below 70%), bin B (70% to below 90%), bin C (90% or more)

Field: example entries. Status: answers known.
Cc1ccc(C2(C#N)CCC(N3CCC4(CC(c5nc(C)no5)C4)C3)CC2)nc1 (single isomer, unassigned) [21-5 Isomer 1]; bin A
Cc1noc(C2CC3(CCN(C4CCC(C#N)(c5ccc(F)cn5)CC4)C3)C2)n1 (single isomer, unassigned) [21-3 Isomer 3]; bin A
Cc1ccc(C2(C#N)CCC(N3CCC4(CC(c5nc(C)no5)C4)C3)CC2)nc1 (single isomer, unassigned) [21-5 Isomer 2]; bin B

Hey, which category is Cc1noc(C2CC3(CCN(C4CCC(C#N)(c5ccc(F)cn5)CC4)C3)C2)n1 (single isomer, unassigned) [21-3 Isomer 4] in, do you know?
bin B

Any idea which band CCOC(=O)NC1CCN(C2CCC3(CC2)C(=O)Nc2ccccc23)CC1 (single isomer, unassigned) [7-1 isomer 1] is in?
bin C

Could you tell me which band CCOC(=O)N1CCCN(C2CCC3(CC2)C(=O)Nc2cccc(C)c23)CC1 (single isomer, unassigned) [4-8 isomer 2] belongs to?
bin C

Would you mind sorting CCOC(=O)NCC1CCN(C2CCC3(CC2)C(=O)Nc2ccccc23)CC1 (single isomer, unassigned) [7-2 isomer 1] into the appropriate category?
bin C

Field: class (M1 % Emax cf. ACh) — entry: COc1ccc2c(c1)C1(CCC(N3CCC4(CC(c5nc(C)no5)C4)C3)CC1)C(=O)N2 (single isomer, unassigned) [26-2 Isomer 3]
bin A

Which category does the recorded M1 % Emax cf. ACh put CCOC(=O)N1CCCN(C2CCC3(CC2)C(=O)Nc2cc(C)ccc23)CC1 (single isomer, unassigned) [4-6 isomer 1] in?
bin B

For the record CCOC(=O)N1CCCN(C2CCC3(CC2)C(=O)Nc2cc(C)ccc23)CC1 (single isomer, unassigned) [4-6 isomer 2] , report the class its M1 % Emax cf. ACh corresponds to.
bin C

Given CCOC(=O)N1CCCN(C2CCC3(CC2)C(=O)Nc2cccc(C)c23)CC1 (single isomer, unassigned) [4-8 isomer 1] , name the class its M1 % Emax cf. ACh places it in.
bin A

Please let me know in which category the item CCOC(=O)N[C@H]1CCN(C2CCC3(CC2)C(=O)Nc2cc(F)ccc23)C1 (single isomer, unassigned) [2-7 isomer 1] belongs.
bin A

Hi there! Could you help me figure out the category for CCOC(=O)NCC1CCN(C2CCC3(CC2)C(=O)Nc2ccccc23)CC1 (single isomer, unassigned) [7-2 isomer 2] please?
bin A

====

Target: human muscarinic M1 receptor (Homo sapiens, UniProt P11229)
Assay: Alphascreen Surefire phospho-ERK1/2 functional assay, M1
Format: cell-based
Details: CHO, read-out: M1 % Emax cf. ACh, CHO cells stably expressing human M1; Emax relative to ACh
If the reported Emax equals or exceeds 60%, assign fulfilled. If not, assign not fulfilled.

Would you please look over these solved cases?
CCOC(=O)N1CCCN(C2CCC(C#N)(c3ccc(Cl)cn3)CC2)CC1 (mixture of isomers) [3-16 mixture of isomers]; fulfilled
CCOC(=O)N1CCCN(C2CCC3(CC2)C(=O)Nc2cc(C#N)ccc23)CC1 (single isomer, unassigned) [4-13 isomer 2]; not fulfilled
CCOC(=O)N[C@H]1CCN(C2CCC3(CC2)C(=O)Nc2ncc(Cl)cc23)C1 (single isomer, unassigned) [2-17 isomer 1]; not fulfilled
CCOC(=O)N1CCCN(C2CCC(C#N)(c3ccc(Br)cn3)CC2)CC1 (single isomer, unassigned) [3-17 Isomer 1]; fulfilled
COc1ccc2c(c1)C1(CCC(N3CCC4(CC(c5nc(C)no5)C4)C3)CC1)C(=O)N2 (single isomer, unassigned) [26-2 Isomer 1]; not fulfilled

Has CCOC(=O)N1CCC2(CCN(C3CCC4(CC3)C(=O)N(C(=O)OCC)c3ccccc34)CC2)C1 (single isomer, unassigned) [12-2 isomer 1] a recorded Emax greater than or equal to 60%?
fulfilled

====

Molecular target: human muscarinic M1 receptor (Homo sapiens, UniProt P11229)
Sequence (P11229 1-460): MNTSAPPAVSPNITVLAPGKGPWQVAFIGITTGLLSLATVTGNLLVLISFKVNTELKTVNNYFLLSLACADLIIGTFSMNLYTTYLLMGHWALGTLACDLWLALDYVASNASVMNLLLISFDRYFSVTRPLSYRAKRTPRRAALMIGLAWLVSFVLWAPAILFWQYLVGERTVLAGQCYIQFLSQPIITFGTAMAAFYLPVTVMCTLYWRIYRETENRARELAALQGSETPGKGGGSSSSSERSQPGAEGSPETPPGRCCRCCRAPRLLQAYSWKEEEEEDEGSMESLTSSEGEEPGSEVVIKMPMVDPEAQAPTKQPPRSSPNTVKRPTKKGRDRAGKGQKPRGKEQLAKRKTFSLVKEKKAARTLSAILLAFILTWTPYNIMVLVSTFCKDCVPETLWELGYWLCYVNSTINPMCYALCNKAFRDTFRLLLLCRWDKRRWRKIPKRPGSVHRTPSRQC
Assay: Alphascreen Surefire phospho-ERK1/2 functional assay, M1
Format: cell-based
Conditions: CHO cells stably expressing human M1; phospho-ERK1/2; read-out: pEC50 M1 (converted)
Metric name: EC50 (nM)
I only need the number, in nM, no unit after it.

// below: answered compounds
CCOC(=O)N1CCCN(C2CCC3(CC2)C(=O)Nc2cc(OC)ccc23)CC1 (single isomer, unassigned) [4-11 isomer 2]; 132
CCOC(=O)N[C@H]1CCN(C2CCC3(CC2)C(=O)Nc2c(C)cccc23)C1 (single isomer, unassigned) [2-3 isomer 1]; 77.6
CCOC(=O)N[C@H]1CCN(C2CCC(C#N)(c3cccc(F)c3)CC2)C1 (single isomer, unassigned) [1-3 Isomer 2]; 30.9
CCOC(=O)N1CCN(C2CCC(C#N)(c3ccccc3)CC2)CC(O)C1 (mixture of isomers) [3-26 mixture of isomers]; 40.7
CCOC(=O)N(C)[C@@H]1CCN(C2CCC3(CC2)C(=O)Nc2ncccc23)C1 (single isomer, unassigned) [2-18 isomer 1]; 148

Now examine the next entry.
EC50 value, target or system human muscarinic M1 receptor (Homo sapiens, UniProt P11229), for CCOC(=O)N[C@H]1CCN(C2CCC3(CC2)C(=O)Nc2ccccc23)C1 (single isomer, unassigned) [2-1 isomer 1] : 74.1

====

The following compounds are shown together with reported EC50 values.
Biological target: human muscarinic M3 receptor (Homo sapiens)
Construct: expressed in transfected cells
Sequence (P20309 whole entry): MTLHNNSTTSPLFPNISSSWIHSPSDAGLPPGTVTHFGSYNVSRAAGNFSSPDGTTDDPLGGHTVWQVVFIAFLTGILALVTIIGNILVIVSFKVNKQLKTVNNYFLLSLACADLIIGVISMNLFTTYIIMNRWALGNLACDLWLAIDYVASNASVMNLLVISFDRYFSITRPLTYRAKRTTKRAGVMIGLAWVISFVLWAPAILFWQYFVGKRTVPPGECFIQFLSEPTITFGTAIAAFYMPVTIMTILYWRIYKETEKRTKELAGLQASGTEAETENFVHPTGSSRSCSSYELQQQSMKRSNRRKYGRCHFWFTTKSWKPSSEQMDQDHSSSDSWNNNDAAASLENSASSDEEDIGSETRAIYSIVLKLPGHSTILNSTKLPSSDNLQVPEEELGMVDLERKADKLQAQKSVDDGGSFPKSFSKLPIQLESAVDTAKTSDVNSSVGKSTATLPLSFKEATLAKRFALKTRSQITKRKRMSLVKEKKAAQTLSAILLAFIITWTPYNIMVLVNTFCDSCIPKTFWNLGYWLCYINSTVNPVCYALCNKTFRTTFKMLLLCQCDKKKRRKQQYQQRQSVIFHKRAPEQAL
Experiment: Alphascreen Surefire phospho-ERK1/2 functional assay, M3
Assay type: cell-based
Details: CHO cells stably expressing human M3; phospho-ERK1/2; read-out: pEC50 M3 (converted)

Before answering, review these 3 worked examples.
CCOC(=O)N[C@H]1CCN(C2CCC3(CC2)C(=O)Nc2cccc(C)c23)C1 (single isomer, unassigned) [2-6 isomer 1]; > 20 µM
CCOC(=O)N1CCCN(C2CCC(C#N)(c3ccc(OC)cn3)CC2)CC1 (single isomer, unassigned) [3-19 Isomer 2]; > 20 µM
Cc1noc([C@@H]2CCCN(C3CCC4(CC3)C(=O)Nc3ccccc34)C2)n1 (single isomer, unassigned) [22-1 Isomer 1]; > 20 µM

The compound listed as CCOC(=O)N[C@H]1CCN(C2CCC3(CC2)C(=O)Nc2ncc(Cl)cc23)C1 (single isomer, unassigned) [2-17 isomer 1] has a reported EC50 of > 20 µM

# EC50 of Cc1ccc2c(c1)NC(=O)C21CCC(N2CCC[C@@H](c3nc(C)no3)C2)CC1 (single isomer, unassigned) [22-4 Isomer 1] = > 20 µM

Form: compound = CCOC(=O)N[C@H]1CCN(C2CCC3(CC2)C(=O)Nc2cc(C)ccc23)C1 (single isomer, unassigned) [2-4 isomer 1] ; EC50 = > 15.8 µM
